Give measured glycan array binding signal (z-score) for each item. Keep answers brief.
- Measured Target: Gal(b1-3)[Fuc(a1-4)]GlcNAc(b1-2)Man(a1-3)[Gal(b1-3)[Fuc(a1-4)]GlcNAc(b1-2)Man(a1-6)]Man(b1-4)GlcNAc(b1-4)GlcNAc
- Test Details: glycan array binding signal (z-score within array); higher = stronger binding
- Condition Details: glycan notation: IUPAC condensed, linker removed
The full list was thinned out, with the strongest signals kept by preference.
// keep it numeric: no unit symbol after the value

Req: Look at this binder and give its reported glycan array binding signal (z-score). BSR4 (Toxoplasma gondii), Q95NL6 (protein) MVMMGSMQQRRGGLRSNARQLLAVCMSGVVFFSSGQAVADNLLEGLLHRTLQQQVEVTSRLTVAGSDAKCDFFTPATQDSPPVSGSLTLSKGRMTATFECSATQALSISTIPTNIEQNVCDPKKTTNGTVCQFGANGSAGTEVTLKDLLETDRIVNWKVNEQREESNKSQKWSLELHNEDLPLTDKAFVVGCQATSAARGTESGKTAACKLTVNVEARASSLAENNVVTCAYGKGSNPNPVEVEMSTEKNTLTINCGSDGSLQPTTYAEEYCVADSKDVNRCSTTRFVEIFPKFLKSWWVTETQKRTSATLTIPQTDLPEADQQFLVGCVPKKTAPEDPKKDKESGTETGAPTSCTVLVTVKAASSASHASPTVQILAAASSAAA
Resp: 1.39

Req: What do you have for PEB1 (Campylobacter jejuni), Q0P9X8 (protein) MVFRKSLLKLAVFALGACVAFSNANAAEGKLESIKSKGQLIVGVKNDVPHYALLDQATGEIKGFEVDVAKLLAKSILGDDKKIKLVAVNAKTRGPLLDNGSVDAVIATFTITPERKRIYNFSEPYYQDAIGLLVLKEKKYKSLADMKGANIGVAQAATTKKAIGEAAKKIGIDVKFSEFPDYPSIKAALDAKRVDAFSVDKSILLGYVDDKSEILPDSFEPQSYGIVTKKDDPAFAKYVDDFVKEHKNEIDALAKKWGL ?
Resp: 4.54

Req: What do you have for SLP (Clostridium difficile), Q183M8 (protein) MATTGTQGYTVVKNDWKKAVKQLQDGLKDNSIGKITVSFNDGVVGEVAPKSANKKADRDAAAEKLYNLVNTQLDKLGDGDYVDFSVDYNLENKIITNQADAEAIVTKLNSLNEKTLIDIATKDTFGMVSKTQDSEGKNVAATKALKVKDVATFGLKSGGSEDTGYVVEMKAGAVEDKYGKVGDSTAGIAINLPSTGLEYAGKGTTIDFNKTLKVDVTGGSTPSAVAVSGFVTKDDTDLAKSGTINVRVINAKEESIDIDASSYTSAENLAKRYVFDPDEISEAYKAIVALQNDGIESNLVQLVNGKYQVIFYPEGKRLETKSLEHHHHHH ?
Resp: 7.99
